Tested on: PC3
Test: Cytoxicity / crystal violet staining, PC3
Format: cell-based
Conditions: Homo sapiens, PC-3; 0.01-5 μM for 72 hours, n=4
pIC50: −log10 of the molar value.
Reported pIC50 values are given for each entry in this list.
Measure: pIC50

>>> df
                                  structure  test_value
0  CCn1ccc2cc(/C=C3\CCc4ccc(F)cc4C3=O)ccc21        6.97
1  O=C1/C(=C/c2ccc3[nH]ccc3c2)CCc2ccc(F)cc21        6.35
2   Cn1ccc2cc(/C=C3\CCc4ccc(F)cc4C3=O)ccc21        6.83
